Measured viability, T/C, listed per entry.
Test system: MDA-MB-231 complex spheroids, growth inhibition
assay overview: Anticancer human tumor MDA-MB-231 cell line growth inhibition [Asc];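 note: spheroids exposed to compounds for 7 days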
experimental parameters: second compound 0.01 µM; first compound 0.1 µM; stronger effect = lower value
Respond numerically; units are % and should not be typed.

Example entries begin here.
[
  {
    "compound": "C#Cc1c(F)ccc2cc(O)cc(-c3ncc4c(N5CC6CCC(C5)N6)nc(OCC56CCCN5CC(F)C6)nc4c3F)c12 (stereo not given) + CNC(C)C(=O)NC1CN(S(=O)(=O)c2cccc(S(=O)(=O)N3CCC4CCC(C(=O)NC(c5ccccc5)c5ccccc5)N4C(=O)C(NC(=O)C(C)NC)C3)c2)CCC2CCC(C(=O)NC(c3ccccc3)c3ccccc3)N2C1=O",
    "readout": "viability, T/C",
    "value reported": 2.54
  },
  {
    "compound": "Cn1ncnc1[C@H]1c2n[nH]c(=O)c3cc(F)cc(c23)N[C@@H]1c1ccc(F)cc1 + CNC(C)C(=O)NC1CN(S(=O)(=O)c2cccc(S(=O)(=O)N3CCC4CCC(C(=O)NC(c5ccccc5)c5ccccc5)N4C(=O)C(NC(=O)C(C)NC)C3)c2)CCC2CCC(C(=O)NC(c3ccccc3)c3ccccc3)N2C1=O",
    "readout": "viability, T/C",
    "value reported": 1.63
  },
  {
    "compound": "COc1c(OCCCN2CCOCC2)ccc2c3n(c(=NC(=O)c4cnc(N)nc4)nc12)CCN3 + CNC(C)C(=O)NC1CN(S(=O)(=O)c2cccc(S(=O)(=O)N3CCC4CCC(C(=O)NC(c5ccccc5)c5ccccc5)N4C(=O)C(NC(=O)C(C)NC)C3)c2)CCC2CCC(C(=O)NC(c3ccccc3)c3ccccc3)N2C1=O",
    "readout": "viability, T/C",
    "value reported": 3.64
  },
  {
    "compound": "C=C(F)C(=O)N1CCN(c2nc(OCC3CCCN3C)nc3c2CCN(c2cccc4cccc(Cl)c24)C3)CC1CC#N (stereo not given) + CNC(C)C(=O)NC1CN(S(=O)(=O)c2cccc(S(=O)(=O)N3CCC4CCC(C(=O)NC(c5ccccc5)c5ccccc5)N4C(=O)C(NC(=O)C(C)NC)C3)c2)CCC2CCC(C(=O)NC(c3ccccc3)c3ccccc3)N2C1=O",
    "readout": "viability, T/C",
    "value reported": 2.81
  }
]

Please find the next compound below.
Note to self: viability, T/C of CCN1CCN(Cc2ccc(Nc3ncc(F)c(-c4cc(F)c5nc(C)n(C(C)C)c5c4)n3)nc2)CC1 + CNC(C)C(=O)NC1CN(S(=O)(=O)c2cccc(S(=O)(=O)N3CCC4CCC(C(=O)NC(c5ccccc5)c5ccccc5)N4C(=O)C(NC(=O)C(C)NC)C3)c2)CCC2CCC(C(=O)NC(c3ccccc3)c3ccccc3)N2C1=O with MDA-MB-231 complex spheroids, growth inhibition was 1.88

###

System: MDA-MB-231 complex spheroids, growth inhibition
assay overview: Anticancer human tumor MDA-MB-231 cell line growth inhibition [Asc];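 note: spheroids exposed to compounds for 7 days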
experimental parameters: curve of first compound; second compound 0.1 µM
List of IC50 values.

[
  {
    "compound": "CCN1CCN(Cc2ccc(Nc3ncc(F)c(-c4cc(F)c5nc(C)n(C(C)C)c5c4)n3)nc2)CC1 + Cc1c(S(C)(=O)=O)c(-c2cc(F)cc(N3CCN(c4ccc(NS(=O)(=O)c5ccc(NC(CCN6CCC(C(=O)OCCCP(=O)(O)O)CC6)CSc6ccccc6)c(S(=O)(=O)C(F)(F)F)c5)cc4)CC3)c2)c(-c2ccc(Cl)cc2)n1C(C)C",
    "value reported": "648 nM"
  },
  {
    "compound": "C=CC(=O)N1CCN(c2nc(=O)n(-c3c(C)ccnc3C(C)C)c3nc(-c4c(O)cccc4F)c(F)cc23)C(C)C1 (stereo unspecified) + Cc1c(S(C)(=O)=O)c(-c2cc(F)cc(N3CCN(c4ccc(NS(=O)(=O)c5ccc(NC(CCN6CCC(C(=O)OCCCP(=O)(O)O)CC6)CSc6ccccc6)c(S(=O)(=O)C(F)(F)F)c5)cc4)CC3)c2)c(-c2ccc(Cl)cc2)n1C(C)C",
    "value reported": "> 10000 nM"
  }
]

What the record says about C=CC(=O)N1CCN(c2nc(=O)n(-c3c(C)ccnc3C(C)C)c3nc(-c4c(O)cccc4F)c(F)cc23)C(C)C1 (stereo unspecified) + CNC(C)C(=O)NC1CN(S(=O)(=O)c2cccc(S(=O)(=O)N3CCC4CCC(C(=O)NC(c5ccccc5)c5ccccc5)N4C(=O)C(NC(=O)C(C)NC)C3)c2)CCC2CCC(C(=O)NC(c3ccccc3)c3ccccc3)N2C1=O : IC50 is < 31.6 nM

# IC50 of O=C(c1ccc(F)c(F)c1Nc1ccc(I)cc1F)N1CC(O)([C@@H]2CCCCN2)C1 + Cc1c(S(C)(=O)=O)c(-c2cc(F)cc(N3CCN(c4ccc(NS(=O)(=O)c5ccc(NC(CCN6CCC(C(=O)OCCCP(=O)(O)O)CC6)CSc6ccccc6)c(S(=O)(=O)C(F)(F)F)c5)cc4)CC3)c2)c(-c2ccc(Cl)cc2)n1C(C)C = 76.3 nM

Value of IC50 reported for the compound C#Cc1c(F)ccc2cc(O)cc(-c3ncc4c(N5CC6CCC(C5)N6)nc(OCC56CCCN5CC(F)C6)nc4c3F)c12 (stereo unspecified) + Cc1c(S(C)(=O)=O)c(-c2cc(F)cc(N3CCN(c4ccc(NS(=O)(=O)c5ccc(NC(CCN6CCC(C(=O)OCCCP(=O)(O)O)CC6)CSc6ccccc6)c(S(=O)(=O)C(F)(F)F)c5)cc4)CC3)c2)c(-c2ccc(Cl)cc2)n1C(C)C is > 10000 nM

According to the records, this compound NC(=O)C(=Cn1cnc(-c2cc(C(F)(F)F)cc(C(F)(F)F)c2)n1)c1cncnc1 + CNC(C)C(=O)NC1CN(S(=O)(=O)c2cccc(S(=O)(=O)N3CCC4CCC(C(=O)NC(c5ccccc5)c5ccccc5)N4C(=O)C(NC(=O)C(C)NC)C3)c2)CCC2CCC(C(=O)NC(c3ccccc3)c3ccccc3)N2C1=O displays IC50 of < 0.949 nM

###

# viability, T/C per record follows
Tested on: MDA-MB-231 complex spheroids, growth inhibition
assay overview: Anticancer human tumor MDA-MB-231 cell line growth inhibition [Asc];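 note: spheroids exposed to compounds for 7 days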
experimental parameters: second compound 3 µM; first compound 1 µM; stronger effect = lower value
Provide only the numeric value, understood in %.

// solved cases for viability, T/C follow
[
  {
    "compound": "CCN1CCN(Cc2ccc(Nc3ncc(F)c(-c4cc(F)c5nc(C)n(C(C)C)c5c4)n3)nc2)CC1 + CCN1C(C(=O)NC23CCC(C(=O)O)(CC2)CC3)C(c2cccc(Cl)c2F)C2(C(=O)Nc3cc(Cl)ccc32)C12CCCCC2",
    "target": "MDA-MB-231 complex spheroids, growth inhibition",
    "value reported": 52.6
  },
  {
    "compound": "O=C(c1ccc(F)c(F)c1Nc1ccc(I)cc1F)N1CC(O)([C@@H]2CCCCN2)C1 + CCN1C(C(=O)NC23CCC(C(=O)O)(CC2)CC3)C(c2cccc(Cl)c2F)C2(C(=O)Nc3cc(Cl)ccc32)C12CCCCC2",
    "target": "MDA-MB-231 complex spheroids, growth inhibition",
    "value reported": 4.76
  },
  {
    "compound": "C=CC(=O)N1CCN(c2nc(=O)n(-c3c(C)ccnc3C(C)C)c3nc(-c4c(O)cccc4F)c(F)cc23)C(C)C1 (centres undefined) + CCN1C(C(=O)NC23CCC(C(=O)O)(CC2)CC3)C(c2cccc(Cl)c2F)C2(C(=O)Nc3cc(Cl)ccc32)C12CCCCC2",
    "target": "MDA-MB-231 complex spheroids, growth inhibition",
    "value reported": 114
  }
]

Record summary for C=C(F)C(=O)N1CCN(c2nc(OCC3CCCN3C)nc3c2CCN(c2cccc4cccc(Cl)c24)C3)CC1CC#N (centres undefined) + CCN1C(C(=O)NC23CCC(C(=O)O)(CC2)CC3)C(c2cccc(Cl)c2F)C2(C(=O)Nc3cc(Cl)ccc32)C12CCCCC2 : reported viability, T/C = 86.9

###

Tested on: MDA-MB-231 complex spheroids, growth inhibition
assay overview: Anticancer human tumor MDA-MB-231 cell line growth inhibition [Asc];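 note: spheroids exposed to compounds for 7 days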
experimental parameters: second compound 0.3 µM; first compound 0.1 µM; stronger effect = lower value
readout: viability, T/C

[
  {
    "molecule": "CCN1CCN(Cc2ccc(Nc3ncc(F)c(-c4cc(F)c5nc(C)n(C(C)C)c5c4)n3)nc2)CC1 + CCN1C(C(=O)NC23CCC(C(=O)O)(CC2)CC3)C(c2cccc(Cl)c2F)C2(C(=O)Nc3cc(Cl)ccc32)C12CCCCC2",
    "readout": "viability, T/C",
    "value reported": "67%"
  },
  {
    "molecule": "CNC(C)C(=O)NC1CN(S(=O)(=O)c2cccc(S(=O)(=O)N3CCC4CCC(C(=O)NC(c5ccccc5)c5ccccc5)N4C(=O)C(NC(=O)C(C)NC)C3)c2)CCC2CCC(C(=O)NC(c3ccccc3)c3ccccc3)N2C1=O (centres undefined) + CCN1C(C(=O)NC23CCC(C(=O)O)(CC2)CC3)C(c2cccc(Cl)c2F)C2(C(=O)Nc3cc(Cl)ccc32)C12CCCCC2",
    "readout": "viability, T/C",
    "value reported": "2.17%"
  },
  {
    "molecule": "C=C(F)C(=O)N1CCN(c2nc(OCC3CCCN3C)nc3c2CCN(c2cccc4cccc(Cl)c24)C3)CC1CC#N (centres undefined) + CCN1C(C(=O)NC23CCC(C(=O)O)(CC2)CC3)C(c2cccc(Cl)c2F)C2(C(=O)Nc3cc(Cl)ccc32)C12CCCCC2",
    "readout": "viability, T/C",
    "value reported": "107%"
  }
]

Now let's try a different one.
Case COc1c(OCCCN2CCOCC2)ccc2c3n(c(=NC(=O)c4cnc(N)nc4)nc12)CCN3 + CCN1C(C(=O)NC23CCC(C(=O)O)(CC2)CC3)C(c2cccc(Cl)c2F)C2(C(=O)Nc3cc(Cl)ccc32)C12CCCCC2 , MDA-MB-231 complex spheroids, growth inhibition, viability, T/C recorded as 49.9%
